Each record here notes measured Emax.
Biological target: delta receptors, rat brain (Rattus norvegicus, UniProt P33533)
Construct: from tissue; host or cells: rat brain homogenate
Sequence (P33533 whole entry): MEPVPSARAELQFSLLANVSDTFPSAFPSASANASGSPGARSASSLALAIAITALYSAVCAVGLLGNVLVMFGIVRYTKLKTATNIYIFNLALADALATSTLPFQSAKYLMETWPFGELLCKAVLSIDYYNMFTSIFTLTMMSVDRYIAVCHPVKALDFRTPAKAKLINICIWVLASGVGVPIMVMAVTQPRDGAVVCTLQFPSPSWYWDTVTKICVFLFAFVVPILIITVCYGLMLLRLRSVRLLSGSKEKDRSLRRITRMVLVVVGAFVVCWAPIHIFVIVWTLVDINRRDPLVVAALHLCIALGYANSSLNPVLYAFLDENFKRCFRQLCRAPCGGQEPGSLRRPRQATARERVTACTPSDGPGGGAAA
Test: GTP[γ]35S binding functional assay, homogenised rat brain membranes
Assay type: biochemical

{"columns": ["SMILES_INPUT", "TARGET_OR_TEST_SYSTEM", "UNIT_TAG", "Emax"],
 "data": [
  ["CCN(CC)C(=O)c1ccc(C(=C2CCN(Cc3ccoc3)CC2)c2cccc3cccnc23)cc1", "delta receptors, rat brain (Rattus norvegicus, UniProt P33533)", "%", 135],
  ["CCN(CC)C(=O)c1ccc(C(=C2CCN(Cc3c[nH]cn3)CC2)c2cccc3cccnc23)cc1", "delta receptors, rat brain (Rattus norvegicus, UniProt P33533)", "%", 112],
  ["CCN(CC)C(=O)c1ccc(C(=C2CCN(Cc3ncc[nH]3)CC2)c2cccc3cccnc23)cc1", "delta receptors, rat brain (Rattus norvegicus, UniProt P33533)", "%", 148],
  ["CCN(CC)C(=O)c1ccc(C(=C2CCN(Cc3cccs3)CC2)c2cccc3cccnc23)cc1", "delta receptors, rat brain (Rattus norvegicus, UniProt P33533)", "%", 120]
]}

* * *

Biological target: delta receptors, mouse brain (Mus musculus)
Construct: from tissue; host or cells: mouse brain homogenate
Sequence (P32300 whole entry): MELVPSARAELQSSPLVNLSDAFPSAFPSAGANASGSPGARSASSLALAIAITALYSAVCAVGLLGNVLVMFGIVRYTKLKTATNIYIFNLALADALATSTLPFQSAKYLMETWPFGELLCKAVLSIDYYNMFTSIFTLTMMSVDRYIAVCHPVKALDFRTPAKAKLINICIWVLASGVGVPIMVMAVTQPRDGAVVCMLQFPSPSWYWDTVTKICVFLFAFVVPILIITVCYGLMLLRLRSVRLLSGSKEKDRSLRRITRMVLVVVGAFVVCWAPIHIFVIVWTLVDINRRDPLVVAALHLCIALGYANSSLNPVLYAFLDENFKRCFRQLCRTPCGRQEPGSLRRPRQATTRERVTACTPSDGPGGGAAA
Assay: GTP[γ]35S binding functional assay, homogenised mouse brain membranes
Type: biochemical

{"columns": ["SMILES_INPUT", "Emax"],
 "data": [
  ["CCN(CC)C(=O)c1ccc(C(=C2CCN(Cc3ccncc3)CC2)c2cccc3cccnc23)cc1", "110%"],
  ["CCN(CC)C(=O)c1ccc(C(=C2CCN(Cc3ccccc3)CC2)c2cccc3cccnc23)cc1", "112%"],
  ["CCN(CC)C(=O)c1ccc(C(=C2CCN(Cc3ccsc3)CC2)c2cccc3cccnc23)cc1", "140%"]
]}
